Reference source: patent US20260116991A1

OD450 nm for assorted binders
SYSTEM UNDER TEST: monkey GPC3-His protein (monkey)
TEST NAME: ELISA, monkey GPC3-His coated; antibody 0.0008 nM
Lab note: jot down the number only; don't add units.

The cases that follow already have their OD450 nm on record.
binder="hAb007LH3L1b (antibody, human IgG1, V domains shown) VH: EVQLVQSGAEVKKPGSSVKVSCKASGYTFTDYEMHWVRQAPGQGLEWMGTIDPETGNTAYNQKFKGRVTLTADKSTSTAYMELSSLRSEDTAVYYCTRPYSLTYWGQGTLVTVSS VL: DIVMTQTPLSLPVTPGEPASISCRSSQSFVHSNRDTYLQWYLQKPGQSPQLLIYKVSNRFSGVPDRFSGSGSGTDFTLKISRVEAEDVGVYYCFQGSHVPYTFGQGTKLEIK" readout_value=0.069
binder="hAb005LH1L1 (antibody, human IgG1, V domains shown) VH: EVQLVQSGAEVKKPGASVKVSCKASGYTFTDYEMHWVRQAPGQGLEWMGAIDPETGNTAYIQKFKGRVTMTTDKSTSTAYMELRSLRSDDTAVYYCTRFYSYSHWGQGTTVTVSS VL: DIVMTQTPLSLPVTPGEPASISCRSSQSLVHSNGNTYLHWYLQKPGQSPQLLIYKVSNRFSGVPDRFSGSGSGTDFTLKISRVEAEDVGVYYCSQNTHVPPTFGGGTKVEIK" readout_value=0.069
binder="hAb003LH2L1 (antibody, human IgG1, V domains shown) VH: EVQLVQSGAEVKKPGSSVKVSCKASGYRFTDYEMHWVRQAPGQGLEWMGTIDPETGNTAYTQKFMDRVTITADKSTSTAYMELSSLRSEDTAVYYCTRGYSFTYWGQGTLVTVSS VL: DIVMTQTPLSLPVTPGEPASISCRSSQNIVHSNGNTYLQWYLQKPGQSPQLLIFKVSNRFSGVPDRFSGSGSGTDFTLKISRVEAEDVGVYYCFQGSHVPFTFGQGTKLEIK" readout_value=0.175
binder="hAb005LH3L1b (antibody, human IgG1, V domains shown) VH: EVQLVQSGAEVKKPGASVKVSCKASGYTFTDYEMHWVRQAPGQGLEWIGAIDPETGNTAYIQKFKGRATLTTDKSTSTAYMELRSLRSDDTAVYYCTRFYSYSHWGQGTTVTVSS VL: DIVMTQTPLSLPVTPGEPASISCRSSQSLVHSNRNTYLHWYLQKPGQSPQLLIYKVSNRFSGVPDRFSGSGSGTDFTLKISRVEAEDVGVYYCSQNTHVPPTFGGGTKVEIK" readout_value=0.088

Lookup: Quote OD450 nm reported for hAb006LH1L1b (antibody, human IgG1, V domains shown) VH: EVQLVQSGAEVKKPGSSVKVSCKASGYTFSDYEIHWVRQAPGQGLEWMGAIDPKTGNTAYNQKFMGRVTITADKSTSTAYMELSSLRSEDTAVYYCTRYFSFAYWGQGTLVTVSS VL: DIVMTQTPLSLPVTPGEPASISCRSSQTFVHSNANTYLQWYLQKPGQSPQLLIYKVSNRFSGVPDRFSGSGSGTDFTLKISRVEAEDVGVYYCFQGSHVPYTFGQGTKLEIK please.
Found: 0.111

Lookup: Quote OD450 nm reported for hAb007LH1L1a (antibody, human IgG1, V domains shown) VH: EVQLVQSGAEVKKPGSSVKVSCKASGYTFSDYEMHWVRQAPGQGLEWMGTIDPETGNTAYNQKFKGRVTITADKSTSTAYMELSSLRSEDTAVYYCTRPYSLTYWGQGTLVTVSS VL: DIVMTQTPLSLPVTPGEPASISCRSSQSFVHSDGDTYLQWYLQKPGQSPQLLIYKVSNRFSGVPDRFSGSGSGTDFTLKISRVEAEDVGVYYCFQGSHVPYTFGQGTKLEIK please.
Found: 0.067
